Data origin, for the record: PubChem BioAssay AID330

- Tested on: P388 leukemia ip, CD2F1 mice, survival T/C
- assay-notes: NCI In Vivo Anticancer Drug Screen. Data for tumor model P388 Leukemia (intraperitoneal) in CD2F1 (CDF1) mice
- measurement-setup: endpoint: median survival time; dose: 240.0 mg/kg/injection; schedule: Q01DX005 (ip); vehicle: saline with Tween-80; higher = longer survival
Toxic doses and inconclusive results are not listed.
measurement-name: T/C

>>> experimental_result("Cc1cccc(-n2c(=O)c3[nH]c4ccccc4sc=3c2=O)c1")
"92 % of control"
>>> experimental_result("O=C(CNC(=O)Nc1ccc(Cl)c(Cl)c1)N/N=C/c1c(O)ccc2ccccc12")
"100 % of control"
>>> experimental_result("O=C(Cc1nc2ccc([N+](=O)[O-])cc2nc1CC(=O)c1ccccc1)c1ccccc1")
"100 % of control"
>>> experimental_result("O=C1CCC(Cc2ccc(Cl)cc2Cl)C(=O)N1 (configuration not stated)")
"87 % of control"
>>> experimental_result("CC1=C(C(=O)CC(=O)Nc2ccc(Cl)c(Cl)c2)Sc2ccccc2N1")
"99 % of control"
>>> experimental_result("O=C(Nc1ccc(CCO)cc1)c1cccc(F)c1")
"86 % of control"
>>> experimental_result("CCc1nc(N)nc(N)c1-c1ccc(Cl)c(N=CN(C)C)c1")
"108 % of control"
